Reference source: patent US20230242662A1

experimental.system: recombinant human CD46 antigen (human) (UniProt P15529)
measurement.notes: ELISA, coated human CD46; EC50 at pH 7.4 over EC50 at pH 6.0

binder	ratio (ph 7.4/pH 6.0)
BA-133-04-01 (antibody, V domains shown) VH: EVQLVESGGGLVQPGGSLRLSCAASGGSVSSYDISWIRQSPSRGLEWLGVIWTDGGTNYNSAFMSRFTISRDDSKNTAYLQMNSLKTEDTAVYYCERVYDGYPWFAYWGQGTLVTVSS VL: AIQLTQSPSSLSASVGDRVTITCRASQWISNYLNWYLQKPGQSPQLLIYYTSSLHSGVPDRFSGSGSGTDFTLKISRVEAEDVGVYYCQQYIKLPWTFGQGTKVEIK	3.46
